Test system: LNCaP xenografts
Assay: Biodistribution in LNCaP xenografts
Type: in vivo, mice
Details: 1 h after injection

molecule	target under test	units symbol	Biodistribution, Liver
O=C([O-])CN1CCN(CC(=O)[O-])CCN(C(CCC(=O)N[C@H](Cc2ccc(O)c(I)c2)C(=O)N[C@H](Cc2ccccc2)C(=O)N[C@H](CCCCNC(=O)CCCCCCC(=O)NCCCC[C@H](NC(=O)N[C@@H](CCC(=O)O)C(=O)O)C(=O)O)C(=O)O)C(=O)O)CC1.[61Cu+2] (stereo partly drawn) [[^61Cu]Cu-NODAGA-PSMA-I&T, NODAGA-(l-y)fk(sub-KuE)]	LNCaP xenografts	%IA/g	1.02
O=C([O-])CN1CCN(CC(=O)O)CCN(CC(=O)[O-])CCN(C(CCC(=O)N[C@H](Cc2ccc(O)c(I)c2)C(=O)N[C@H](Cc2ccccc2)C(=O)N[C@H](CCCCNC(=O)CCCCCCC(=O)NCCCC[C@H](NC(=O)N[C@@H](CCC(=O)O)C(=O)O)C(=O)O)C(=O)O)C(=O)O)CC1.[61Cu+2] (stereo partly drawn) [[^61Cu]Cu-DOTAGA-PSMA-I&T, DOTAGA-(l-y)fk(sub-KuE)]	LNCaP xenografts	%IA/g	19.3
O=C(O)CC[C@H](NC(=O)N[C@@H](CCCCNC(=O)[C@H](Cc1ccc2ccccc2c1)NC(=O)c1ccc(CNC(=O)[C@H](CCC(=O)O)NC(=O)[C@H](CCC(=O)O)NC(=O)c2ccc([18F])nc2)cc1)C(=O)O)C(=O)O [[^18F]PSMA-1007, reference compound]	LNCaP xenografts	%IA/g	0.93

----------
Tested on: LNCaP xenografts
Experiment: Biodistribution in LNCaP xenografts
Type: in vivo, mice
Conditions: 1 h after injection

compound	Biodistribution, Femur / %IA/g
O=C(O)CC[C@H](NC(=O)N[C@@H](CCCCNC(=O)[C@H](Cc1ccc2ccccc2c1)NC(=O)c1ccc(CNC(=O)[C@H](CCC(=O)O)NC(=O)[C@H](CCC(=O)O)NC(=O)c2ccc([18F])nc2)cc1)C(=O)O)C(=O)O [[^18F]PSMA-1007, reference compound]	0.94

----------
System: LNCaP xenografts
Experiment: Biodistribution in LNCaP xenografts
Type: in vivo, mice
Conditions: 1 h after injection
endpoint label: Tumor-to-Kidneys ratio

molecule	numeric result
O=C([O-])CN(CCN(CC(=O)[O-])Cc1cc(CCC(=O)NCCCCCC(=O)NCCCC[C@H](NC(=O)N[C@@H](CCC(=O)O)C(=O)O)C(=O)O)ccc1[O-])Cc1cc(CCC(=O)O)ccc1[O-].[68Ga+3].[OH3+] [[^68Ga]Ga-PSMA-11, reference compound]	0.07
O=C([O-])CN1CCN(CC(=O)O)CCN(CC(=O)[O-])CCN(C(CCC(=O)N[C@H](Cc2ccc(O)c(I)c2)C(=O)N[C@H](Cc2ccccc2)C(=O)N[C@H](CCCCNC(=O)CCCCCCC(=O)NCCCC[C@H](NC(=O)N[C@@H](CCC(=O)O)C(=O)O)C(=O)O)C(=O)O)C(=O)O)CC1.[61Cu+2] (stereo partly drawn) [[^61Cu]Cu-DOTAGA-PSMA-I&T, DOTAGA-(l-y)fk(sub-KuE)]	0.11
O=C([O-])CN1CCN(CC(=O)[O-])CCN(C(CCC(=O)N[C@H](Cc2ccc(O)c(I)c2)C(=O)N[C@H](Cc2ccccc2)C(=O)N[C@H](CCCCNC(=O)CCCCCCC(=O)NCCCC[C@H](NC(=O)N[C@@H](CCC(=O)O)C(=O)O)C(=O)O)C(=O)O)C(=O)O)CC1.[61Cu+2] (stereo partly drawn) [[^61Cu]Cu-NODAGA-PSMA-I&T, NODAGA-(l-y)fk(sub-KuE)]	0.13
O=C(O)CC[C@H](NC(=O)N[C@@H](CCCCNC(=O)[C@H](Cc1ccc2ccccc2c1)NC(=O)c1ccc(CNC(=O)[C@H](CCC(=O)O)NC(=O)[C@H](CCC(=O)O)NC(=O)c2ccc([18F])nc2)cc1)C(=O)O)C(=O)O [[^18F]PSMA-1007, reference compound]	0.10

----------
As shown below, each of these molecules has a reported Biodistribution, Pancreas value.
System: LNCaP xenografts
Experiment: Biodistribution in LNCaP xenografts
Assay type: in vivo, mice
Settings: 1 h after injection

molecule	target under test	Biodistribution, Pancreas (%IA/g)
O=C(O)CC[C@H](NC(=O)N[C@@H](CCCCNC(=O)[C@H](Cc1ccc2ccccc2c1)NC(=O)c1ccc(CNC(=O)[C@H](CCC(=O)O)NC(=O)[C@H](CCC(=O)O)NC(=O)c2ccc([18F])nc2)cc1)C(=O)O)C(=O)O [[^18F]PSMA-1007, reference compound]	LNCaP xenografts	1.32
O=C([O-])CN(CCN(CC(=O)[O-])Cc1cc(CCC(=O)NCCCCCC(=O)NCCCC[C@H](NC(=O)N[C@@H](CCC(=O)O)C(=O)O)C(=O)O)ccc1[O-])Cc1cc(CCC(=O)O)ccc1[O-].[68Ga+3].[OH3+] [[^68Ga]Ga-PSMA-11, reference compound]	LNCaP xenografts	0.70
O=C([O-])CN1CCN(CC(=O)O)CCN(CC(=O)[O-])CCN(C(CCC(=O)N[C@H](Cc2ccc(O)c(I)c2)C(=O)N[C@H](Cc2ccccc2)C(=O)N[C@H](CCCCNC(=O)CCCCCCC(=O)NCCCC[C@H](NC(=O)N[C@@H](CCC(=O)O)C(=O)O)C(=O)O)C(=O)O)C(=O)O)CC1.[61Cu+2] (stereo partly drawn) [[^61Cu]Cu-DOTAGA-PSMA-I&T, DOTAGA-(l-y)fk(sub-KuE)]	LNCaP xenografts	2.82
O=C([O-])CN1CCN(CC(=O)[O-])CCN(C(CCC(=O)N[C@H](Cc2ccc(O)c(I)c2)C(=O)N[C@H](Cc2ccccc2)C(=O)N[C@H](CCCCNC(=O)CCCCCCC(=O)NCCCC[C@H](NC(=O)N[C@@H](CCC(=O)O)C(=O)O)C(=O)O)C(=O)O)C(=O)O)CC1.[61Cu+2] (stereo partly drawn) [[^61Cu]Cu-NODAGA-PSMA-I&T, NODAGA-(l-y)fk(sub-KuE)]	LNCaP xenografts	0.97

----------
System: LNCaP cells
Assay: Cellular uptake and distribution (surface-bound, internalized) in LNCaP cells
Assay type: cell-based
Conditions: 1 h, 37°C, specific uptake
endpoint label: Cellular uptake (surface-bound + internalized)

compound	target under test	result
O=C([O-])CN1CCN(CC(=O)[O-])CCN(C(CCC(=O)N[C@H](Cc2ccc(O)c(I)c2)C(=O)N[C@H](Cc2ccccc2)C(=O)N[C@H](CCCCNC(=O)CCCCCCC(=O)NCCCC[C@H](NC(=O)N[C@@H](CCC(=O)O)C(=O)O)C(=O)O)C(=O)O)C(=O)O)CC1.[61Cu+2] (stereo partly drawn) [[^61Cu]Cu-NODAGA-PSMA-I&T, NODAGA-(l-y)fk(sub-KuE)]	LNCaP cells	22.4% ± 3.3%
O=C([O-])CN1CCN(CC(=O)O)CCN(CC(=O)[O-])CCN(C(CCC(=O)N[C@H](Cc2ccc(O)c(I)c2)C(=O)N[C@H](Cc2ccccc2)C(=O)N[C@H](CCCCNC(=O)CCCCCCC(=O)NCCCC[C@H](NC(=O)N[C@@H](CCC(=O)O)C(=O)O)C(=O)O)C(=O)O)C(=O)O)CC1.[61Cu+2] (stereo partly drawn) [[^61Cu]Cu-DOTAGA-PSMA-I&T, DOTAGA-(l-y)fk(sub-KuE)]	LNCaP cells	26.6% ± 1.3%
O=C([O-])CN(CCN(CC(=O)[O-])Cc1cc(CCC(=O)NCCCCCC(=O)NCCCC[C@H](NC(=O)N[C@@H](CCC(=O)O)C(=O)O)C(=O)O)ccc1[O-])Cc1cc(CCC(=O)O)ccc1[O-].[68Ga+3].[OH3+] [[^68Ga]Ga-PSMA-11, reference compound]	LNCaP cells	25.8% ± 0.5%
O=C([O-])CN1CCN(CC(=O)[O-])CCN(C(CCC(=O)N[C@H](Cc2ccc(O)c(I)c2)C(=O)N[C@H](Cc2ccccc2)C(=O)N[C@H](CCCCNC(=O)CCCCCCC(=O)NCCCC[C@H](NC(=O)N[C@@H](CCC(=O)O)C(=O)O)C(=O)O)C(=O)O)C(=O)O)CCN(CC(=O)[O-])CC1.[68Ga+3] (some centres unmarked) [[^68Ga]Ga-DOTAGA-PSMA-I&T, reference compound]	LNCaP cells	20.6% ± 2.3%
O=C([O-])CN1CCN(CC(=O)[O-])CCN(C(CCC(=O)N[C@H](Cc2ccc(O)c(I)c2)C(=O)N[C@H](Cc2ccccc2)C(=O)N[C@H](CCCCNC(=O)CCCCCCC(=O)NCCCC[C@H](NC(=O)N[C@@H](CCC(=O)O)C(=O)O)C(=O)O)C(=O)O)C(=O)[O-])CC1.[68Ga+3] (some centres unmarked) [[^68Ga]Ga-NODAGA-PSMA-I&T]	LNCaP cells	18.1% ± 2.6%
